- Method notes: O-series vs U-series inhaler: discharge and particle size of crystalline and amorphous powders (Example 14)
- Assay type: physicochemical
- Conditions used: Sample 1, O-series, fill 25 mg, 4 kPa
Outcome measure: X16 avg
Your reply should be a number followed by the unit it is expressed in.

Consider O=C(O)/C=C/C(=O)NCCCCC1NC(=O)C(CCCCNC(=O)/C=C/C(=O)O)NC1=O (stereo not shown) [FDKP] . Its measured X16 avg is 1.9 µm

---

- Method notes: O-series vs U-series inhaler: discharge and particle size of crystalline and amorphous powders (Example 14)
- Assay type: physicochemical
- Conditions used: Sample 2, U-series, fill 25 mg, 4 kPa
Outcome measure: X16 avg (µm)
Respond numerically; units are µm and should not be typed.

Per the records, this compound ( O=C(O)/C=C/C(=O)NCCCCC1NC(=O)C(CCCCNC(=O)/C=C/C(=O)O)NC1=O (stereo not shown) ) has X16 avg equal to 2.76
